These measurements were taken from patent US20100015058A1.

assay: MicroPET blood and normal organ uptake in T47D and MDA-MB-435 tumor-bearing nude mice; conditions: nude, mouse, kidney, iv, total radioactivity
Readout name: tissue uptake at 1 h (%ID/g)
The answer is to be given in %ID/g; state only the numeric part.

Request: Return value of tissue uptake at 1 h for input CSCC[C@H](NC(=O)[C@H](CC(C)C)NC(=O)[C@H](Cc1c[nH]cn1)NC(=O)CNC(=O)[C@@H](NC(=O)[C@H](C)NC(=O)[C@H](Cc1c[nH]c2ccccc12)NC(=O)[C@H](CCC(N)=O)NC(=O)CCCCCNC(=O)CC[C@H](NC(=O)COCCOCCOCCNC(=O)c1ccc([18F])cc1)C(=O)NCCCC[C@@H]1NC(=O)[C@@H](Cc2ccc(O)cc2)NC(=O)[C@H](CC(=O)O)NC(=O)CNC(=O)[C@H](CCCNC(=N)N)NC1=O)C(C)C)C(N)=O [^18F-FB-PEG3-RGD-BBN] , no commentary.
Result: 1.56

====

assay: in vivo; details: male, athymic nude, mouse, in vivo, iv, 5.5 MBq, total radioactivity, Tumor uptake
Readout name: tissue uptake at 24 h

>  <Compound>
CSCC[C@H](NC(=O)[C@H](CC(C)C)NC(=O)[C@H](Cc1c[nH]cn1)NC(=O)CNC(=O)[C@@H](NC(=O)[C@H](C)NC(=O)[C@H](Cc1c[nH]c2ccccc12)NC(=O)[C@H](CCC(N)=O)NC(=O)CCCCCNC(=S)Nc1ccc(C[C@H]2CN(CC(=O)O)CCN(CC(=O)O)CCN2CC(=O)O)cc1)C(C)C)C(N)=O [^64Cu-NOTA-BBN, metal not drawn, reference compound]

>  <tissue uptake at 24 h>
0.44 %ID/g

$$$$

Note: attention shifts to another entry.
Request: Return value of tissue uptake at 24 h for input CSCC[C@H](NC(=O)[C@H](CC(C)C)NC(=O)[C@H](Cc1c[nH]cn1)NC(=O)CNC(=O)[C@@H](NC(=O)[C@H](C)NC(=O)[C@H](Cc1c[nH]c2ccccc12)NC(=O)[C@H](CCC(N)=O)NC(=O)CCCCCNC(=O)CC[C@H](NC(=S)Nc1ccc(C[C@H]2CN(CC(=O)O)CCN(CC(=O)O)CCN2CC(=O)O)cc1)C(=O)NCCCC[C@@H]1NC(=O)[C@@H](Cc2ccc(O)cc2)NC(=O)[C@H](CC(=O)O)NC(=O)CNC(=O)[C@H](CCCNC(=N)N)NC1=O)C(C)C)C(N)=O [^64Cu-NOTA-RGD-BBN, metal not drawn] , no commentary.
Result: 2.04 %ID/g

====

experiment: MicroPET blood and normal organ uptake in T47D and MDA-MB-435 tumor-bearing nude mice; conditions: nude, mouse, kidney, iv, total radioactivity, Kidney uptake, average of eight mice, 0.5 h
Readout name: tissue uptake at 0.5 h

Request: Return value of tissue uptake at 0.5 h for input CSCC[C@H](NC(=O)[C@H](CC(C)C)NC(=O)[C@H](Cc1c[nH]cn1)NC(=O)CNC(=O)[C@@H](NC(=O)[C@H](C)NC(=O)[C@H](Cc1c[nH]c2ccccc12)NC(=O)[C@H](CCC(N)=O)NC(=O)CCCCCNC(=O)CC[C@H](NC(=S)Nc1ccc(C[C@H]2CN(CC(=O)O)CCN(CC(=O)O)CCN2CC(=O)O)cc1)C(=O)NCCCC[C@@H]1NC(=O)[C@@H](Cc2ccc(O)cc2)NC(=O)[C@H](CC(=O)O)NC(=O)CNC(=O)[C@H](CCCNC(=N)N)NC1=O)C(C)C)C(N)=O [^68Ga-NOTA-RGD-BBN, metal not drawn] , no commentary.
Result: 4.39 %ID/g
